# Test Target: LmCK1 (Leishmania major)
# Sequence (Q9NHE1 entry or part of it): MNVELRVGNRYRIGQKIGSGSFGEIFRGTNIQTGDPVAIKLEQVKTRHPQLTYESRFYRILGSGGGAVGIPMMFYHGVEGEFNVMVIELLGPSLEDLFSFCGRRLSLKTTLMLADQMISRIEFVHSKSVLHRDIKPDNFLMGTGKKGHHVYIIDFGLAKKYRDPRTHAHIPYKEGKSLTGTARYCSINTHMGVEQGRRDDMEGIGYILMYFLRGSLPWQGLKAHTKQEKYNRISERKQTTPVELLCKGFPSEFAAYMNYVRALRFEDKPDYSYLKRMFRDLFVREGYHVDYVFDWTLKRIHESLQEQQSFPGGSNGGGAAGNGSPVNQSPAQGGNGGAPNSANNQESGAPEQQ
# Test Method Notes: Protein kinase assay
# Type: biochemical
pIC50: −log10 of the molar value.
Experimental Readout: pIC50

INSERT INTO assay_data (structure_smiles, result) VALUES
  ('CN1C(=O)/C(=C/c2ccc3c(c2)OCO3)N=C1N', '< 5.00');

====

# Test Target: TcCLK1 (Trypanosoma cruzi)
# Test Method Notes: Protein kinase assay
# Type: biochemical
# Condition: 15 μmol/L ATP; read-out: IC50 TcCLK1
Reported IC50 by item:
Experimental Readout: IC50

INSERT INTO measurements (molecule, result) VALUES
  ('NC1=NC(=O)/C(=C2\CCNC(=O)c3[nH]c(Br)cc32)N1 [Hymenialdisine, reference compound]', '0.51 µM'),
  ('CN1C(=N)N=C(Nc2nc(Cc3ccc4c(c3)OCO4)cn2C)C1=O [Clathridimine]', '> 10 µM'),
  ('COc1cc(/C=C2\N=C(N)NC2=O)ccc1O [Polyandrocarpamine A]', '> 10 µM'),
  ('NC1=NC(=O)/C(=C2\CCNC(=O)c3[nH]cc(Br)c32)N1 [Spongiacidin B]', '1.1 µM'),
  ('CN1C(=O)N=C(Nc2nc(Cc3ccc4c(c3)OCO4)cn2C)C1=O [Clathridine]', '> 10 µM'),
  ('NC1=N/C(=C\CCNC(=O)c2cc(Br)c(Br)[nH]2)C(=O)N1 [Dispacamide]', '> 10 µM'),
  ('CN1C(=N)N(C)/C(=C\c2c[nH]c3ccccc23)C1=O [Aplysinopsine]', '> 10 µM'),
  ('O=C1NC(Nc2ccccc2)=N/C1=C\c1ccc2c(c1)OCO2 [Leucettine L41, reference compound]', '> 10 µM'),
  ('NC1=N/C(=C\c2ccc(O)c(O)c2)C(=O)N1 [Polyandrocarpamine B]', '> 10 µM');

====

compounds and their reported pIC50
# Test Target: DYRK3 (Homo sapiens, UniProt O43781)
# Sequence (O43781 1-588): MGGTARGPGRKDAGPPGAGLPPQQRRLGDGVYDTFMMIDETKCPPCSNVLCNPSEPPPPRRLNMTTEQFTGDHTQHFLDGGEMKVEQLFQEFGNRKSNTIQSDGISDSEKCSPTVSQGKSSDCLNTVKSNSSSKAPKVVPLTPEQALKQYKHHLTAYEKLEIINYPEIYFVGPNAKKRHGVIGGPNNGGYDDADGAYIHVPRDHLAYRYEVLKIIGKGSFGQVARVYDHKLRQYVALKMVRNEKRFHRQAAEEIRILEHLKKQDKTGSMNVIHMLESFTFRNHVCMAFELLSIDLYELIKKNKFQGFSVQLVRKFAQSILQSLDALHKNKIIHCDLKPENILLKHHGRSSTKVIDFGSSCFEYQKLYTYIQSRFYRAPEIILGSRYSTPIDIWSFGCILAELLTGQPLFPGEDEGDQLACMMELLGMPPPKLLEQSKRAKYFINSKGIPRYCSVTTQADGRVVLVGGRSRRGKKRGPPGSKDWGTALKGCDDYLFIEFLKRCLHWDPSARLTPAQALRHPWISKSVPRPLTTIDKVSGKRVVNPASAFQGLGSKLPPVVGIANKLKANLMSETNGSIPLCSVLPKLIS
# Test Method Notes: Protein kinase assay
# Type: biochemical
# Condition: 15 μmol/L ATP; read-out: IC50 DYRK3
pIC50: −log10 of the molar value.
Experimental Readout: pIC50

INSERT INTO results (compound, test_target, experimental_readout, limit_sign, measured_number) VALUES
  ('NC1=NC(=O)/C(=C2\CCNC(=O)c3[nH]cc(Br)c32)N1', 'DYRK3 (Homo sapiens, UniProt O43781)', 'pIC50', '=', 7.36),
  ('Cc1ccc(C=C2N=C(N)NC2=O)s1', 'DYRK3 (Homo sapiens, UniProt O43781)', 'pIC50', '<', 5.00),
  ('CN1C(=N)N=C(Nc2nc(Cc3ccc4c(c3)OCO4)cn2C)C1=O', 'DYRK3 (Homo sapiens, UniProt O43781)', 'pIC50', '=', 5.21),
  ('NC1=N/C(=C\c2ccc(O)c(O)c2)C(=O)N1 [Polyandrocarpamine B]', 'DYRK3 (Homo sapiens, UniProt O43781)', 'pIC50', '=', 6.06),
  ('CN1C(=N)N(C)/C(=C\c2c[nH]c3ccccc23)C1=O', 'DYRK3 (Homo sapiens, UniProt O43781)', 'pIC50', '<', 5.00);

====

# Test Target: PfGSK-3 (Plasmodium falciparum)
# Sequence (O77344 1-440): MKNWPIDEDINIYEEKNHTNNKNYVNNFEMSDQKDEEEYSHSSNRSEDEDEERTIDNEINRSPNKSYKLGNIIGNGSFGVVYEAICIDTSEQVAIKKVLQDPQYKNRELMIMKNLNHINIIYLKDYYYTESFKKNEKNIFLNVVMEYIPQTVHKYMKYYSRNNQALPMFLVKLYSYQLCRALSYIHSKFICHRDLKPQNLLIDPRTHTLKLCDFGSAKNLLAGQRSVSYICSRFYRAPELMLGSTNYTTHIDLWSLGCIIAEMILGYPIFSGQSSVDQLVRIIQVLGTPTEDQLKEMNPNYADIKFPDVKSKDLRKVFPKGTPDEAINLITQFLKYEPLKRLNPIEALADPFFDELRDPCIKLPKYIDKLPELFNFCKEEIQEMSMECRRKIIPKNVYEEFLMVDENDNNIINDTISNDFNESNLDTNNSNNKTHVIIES
# Test Method Notes: Protein kinase assay
# Assay type: biochemical
Experimental Readout: IC50

INSERT INTO assay_data (structure_smiles, experimental_readout, result) VALUES
  ('CN1C(=O)/C(=C/c2ccc3c(c2)OCO3)N=C1N', 'IC50', '> 10 µM');

====

# Test Target: UniProt A8BBY0
# Sequence (A8BBY0 entry or part of it): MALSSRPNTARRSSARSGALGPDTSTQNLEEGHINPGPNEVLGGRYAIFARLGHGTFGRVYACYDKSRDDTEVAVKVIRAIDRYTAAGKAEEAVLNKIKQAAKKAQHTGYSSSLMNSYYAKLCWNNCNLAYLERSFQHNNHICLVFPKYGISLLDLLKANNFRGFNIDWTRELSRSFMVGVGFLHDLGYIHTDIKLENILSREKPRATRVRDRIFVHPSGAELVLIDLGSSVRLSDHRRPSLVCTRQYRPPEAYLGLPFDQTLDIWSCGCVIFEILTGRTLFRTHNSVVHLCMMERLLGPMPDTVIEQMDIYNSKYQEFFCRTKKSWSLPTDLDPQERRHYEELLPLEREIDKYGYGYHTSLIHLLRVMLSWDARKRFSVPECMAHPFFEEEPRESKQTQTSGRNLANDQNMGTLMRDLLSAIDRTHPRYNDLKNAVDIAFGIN
# Test Method Notes: Protein kinase assay
# Assay type: biochemical
# Condition: 15 μmol/L ATP; read-out: IC50 GlCLK
Measured IC50, listed per entry for reference.
Experimental Readout: IC50 (nM)

INSERT INTO results (compound, limit_sign, measured_number) VALUES
  ('O=C1NC(Nc2ccccc2)=N/C1=C\c1ccc2c(c1)OCO2 [Leucettine L41, reference compound]', '>', 10000),
  ('NC1=N/C(=C\c2ccc(O)c(O)c2)C(=O)N1 [Polyandrocarpamine B]', '=', 2200),
  ('NC1=N/C(=C\CCNC(=O)c2cc(Br)c(Br)[nH]2)C(=O)N1 [Dispacamide]', '>', 10000),
  ('NC1=NC(=O)/C(=C2\CCNC(=O)c3[nH]cc(Br)c32)N1 [Spongiacidin B]', '=', 120),
  ('NC1=NC(=O)/C(=C2\CCNC(=O)c3[nH]c(Br)cc32)N1 [Hymenialdisine, reference compound]', '=', 12),
  ('CN1C(=N)N(C)/C(=C\c2c[nH]c3ccccc23)C1=O [Aplysinopsine]', '>', 10000),
  ('CN1C(=O)N=C(Nc2nc(Cc3ccc4c(c3)OCO4)cn2C)C1=O [Clathridine]', '>', 10000),
  ('COc1cc(/C=C2\N=C(N)NC2=O)ccc1O [Polyandrocarpamine A]', '=', 950),
  ('CN1C(=N)N=C(Nc2nc(Cc3ccc4c(c3)OCO4)cn2C)C1=O [Clathridimine]', '>', 10000);

====

# Test Target: TcCLK1 (Trypanosoma cruzi, UniProt Q4E3Z1)
# Sequence (Q4E3Z1 entry or part of it): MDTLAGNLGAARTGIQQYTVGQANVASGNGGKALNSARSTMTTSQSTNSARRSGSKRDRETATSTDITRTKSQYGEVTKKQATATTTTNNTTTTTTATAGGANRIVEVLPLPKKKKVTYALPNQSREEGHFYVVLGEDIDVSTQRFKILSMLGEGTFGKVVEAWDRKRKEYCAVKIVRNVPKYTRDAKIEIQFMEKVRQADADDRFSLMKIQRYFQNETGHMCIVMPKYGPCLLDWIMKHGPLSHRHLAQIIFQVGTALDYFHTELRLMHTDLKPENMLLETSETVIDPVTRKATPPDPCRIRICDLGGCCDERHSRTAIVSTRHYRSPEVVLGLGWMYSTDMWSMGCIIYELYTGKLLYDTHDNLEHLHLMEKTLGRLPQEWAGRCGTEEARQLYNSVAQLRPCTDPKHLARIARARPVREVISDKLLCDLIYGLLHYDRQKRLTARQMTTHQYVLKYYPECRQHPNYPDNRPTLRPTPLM
# Test Method Notes: Protein kinase assay
# Format: biochemical
pIC50: −log10 of the molar value.
Experimental Readout: pIC50

INSERT INTO measurements (compound, test_target, experimental_readout, result) VALUES
  ('CN1C(=O)/C(=C/c2ccc3c(c2)OCO3)N=C1N [Leucettamine B]', 'TcCLK1 (Trypanosoma cruzi, UniProt Q4E3Z1)', 'pIC50', '< 5.00');

====

Recorded pIC50 by entry
# Test Target: TgCLK (Toxoplasma gondii, UniProt V4ZJD6)
# Test Method Notes: Protein kinase assay
# Assay type: biochemical
# Condition: 15 μmol/L ATP; read-out: IC50 TgCLK
pIC50: −log10 of the molar value.
Experimental Readout: pIC50

INSERT INTO measurements (compound, test_target, experimental_readout, result) VALUES
  ('NC1=N/C(=C\c2ccc(O)c(O)c2)C(=O)N1', 'TgCLK (Toxoplasma gondii, UniProt V4ZJD6)', 'pIC50', '< 5.00'),
  ('NC1=N/C(=C\CCNC(=O)c2cc(Br)c(Br)[nH]2)C(=O)N1 [Dispacamide]', 'TgCLK (Toxoplasma gondii, UniProt V4ZJD6)', 'pIC50', '< 5.00'),
  ('O=C1NC(Nc2ccccc2)=N/C1=C\c1ccc2c(c1)OCO2 [Leucettine L41, reference compound]', 'TgCLK (Toxoplasma gondii, UniProt V4ZJD6)', 'pIC50', '< 5.00'),
  ('CN1C(=N)N=C(Nc2nc(Cc3ccc4c(c3)OCO4)cn2C)C1=O', 'TgCLK (Toxoplasma gondii, UniProt V4ZJD6)', 'pIC50', '< 5.00'),
  ('COc1cc(/C=C2\N=C(N)NC2=O)ccc1O', 'TgCLK (Toxoplasma gondii, UniProt V4ZJD6)', 'pIC50', '< 5.00'),
  ('NC1=NC(=O)/C(=C2\CCNC(=O)c3[nH]c(Br)cc32)N1 [Hymenialdisine, reference compound]', 'TgCLK (Toxoplasma gondii, UniProt V4ZJD6)', 'pIC50', 7.39),
  ('NC1=NC(=O)/C(=C2\CCNC(=O)c3[nH]cc(Br)c32)N1', 'TgCLK (Toxoplasma gondii, UniProt V4ZJD6)', 'pIC50', 6.32),
  ('CN1C(=O)N=C(Nc2nc(Cc3ccc4c(c3)OCO4)cn2C)C1=O', 'TgCLK (Toxoplasma gondii, UniProt V4ZJD6)', 'pIC50', '< 5.00'),
  ('CN1C(=N)N(C)/C(=C\c2c[nH]c3ccccc23)C1=O', 'TgCLK (Toxoplasma gondii, UniProt V4ZJD6)', 'pIC50', '< 5.00');
